Values were extracted from patent US20260242391A1.

- Test system: HL-60
- measurement notes: HL-60 differentiation potency
- Format: cell-based
- reported conditions: Homo sapiens
Mark rule met only for EC50 values smaller than 100 nM; exact matches and larger values are rule not met.

INSERT INTO measurements (molecule, category) VALUES
  ('C[C@H]1[C@@H](OCc2c(Cl)cc(C(=O)O)cc2S(C)(=O)=O)O[C@@H]2O[C@@]3(C)CC[C@H]4[C@H](C)CC[C@@H]1[C@@]24OO3 [Compound 216]', 'rule not met'),
  ('C[C@H]1[C@@H](Oc2ccc(CC(=O)N[C@@H]3C[C@H](C(=O)O)C[C@H]3O)cc2)O[C@@H]2O[C@@]3(C)CC[C@H]4[C@H](C)CC[C@@H]1[C@@]24OO3 [Compound 299]', 'rule not met'),
  ('C[C@H]1[C@@H](OC[C@H]2CC[C@@H](C(=O)NCC3(C(=O)O)CCC3)CC2)O[C@@H]2O[C@@]3(C)CC[C@H]4[C@H](C)CC[C@@H]1[C@@]24OO3 [Compound 297]', 'rule met'),
  ('C[C@H]1[C@@H](Oc2ccc(C(=O)N[C@H]3CC[C@@H](C(=O)O)C3)cc2Cl)O[C@@H]2O[C@@]3(C)CC[C@H]4[C@H](C)CC[C@@H]1[C@@]24OO3 [Compound 232]', 'rule met'),
  ('C[C@H]1[C@@H](Oc2ccc(C(=O)N[C@H](C(=O)O)c3ccccc3)cc2)O[C@@H]2O[C@@]3(C)CC[C@H]4[C@H](C)CC[C@@H]1[C@@]24OO3 [Compound 234]', 'rule not met'),
  ('C[C@H]1[C@@H](Oc2ccc(C(=O)N[C@H]3CCC(=O)NC3=O)cc2)O[C@@H]2O[C@@]3(C)CC[C@H]4[C@H](C)CC[C@@H]1[C@@]24OO3 [Compound 198]', 'rule met'),
  ('C[C@H]1[C@@H](Oc2ccc(C(=O)N3[C@H](C(=O)O)C[C@@H]4CCC[C@@H]43)cc2)O[C@@H]2O[C@@]3(C)CC[C@H]4[C@H](C)CC[C@@H]1[C@@]24OO3 [Compound 207]', 'rule not met'),
  ('C[C@H]1[C@@H](OCc2ccc(N3C(=O)N(CC(=O)O)C(C)(C)C3=O)cc2)O[C@@H]2O[C@@]3(C)CC[C@H]4[C@H](C)CC[C@@H]1[C@@]24OO3 [Compound 296]', 'rule not met'),
  ('C[C@H]1[C@@H](Oc2ccc(Cn3cc(C(=O)O)nn3)c(Br)c2)O[C@@H]2O[C@@]3(C)CC[C@H]4[C@H](C)CC[C@@H]1[C@@]24OO3 [Compound 264]', 'rule not met'),
  ('C[C@H]1[C@@H](O[C@H]2CC[C@@H](C(=O)N[C@H]3CC[C@@H](C(=O)O)C3)CC2)O[C@@H]2O[C@@]3(C)CC[C@H]4[C@H](C)CC[C@@H]1[C@@]24OO3 [Compound 202]', 'rule not met'),
  ('C[C@H]1[C@@H](Oc2ccc(OC3(C(=O)O)CC3)cc2)O[C@@H]2O[C@@]3(C)CC[C@H]4[C@H](C)CC[C@@H]1[C@@]24OO3 [Compound 268]', 'rule met');

----------
- measurement notes: in vitro
- reported conditions: human
measurement label: IC50 (µM)

INSERT INTO results (smiles, measurement_label, censor_symbol, result_value) VALUES
  ('C[C@H]1[C@@H](OCc2cc(C(=O)O)ccc2Cl)O[C@@H]2O[C@@]3(C)CC[C@H]4[C@H](C)CC[C@@H]1[C@@]24OO3', 'IC50', '=', 10.5),
  ('C[C@H]1[C@@H](OC[C@H]2CC[C@@H](C(=O)NC(C)(C)C)CC2)O[C@@H]2O[C@@]3(C)CC[C@H]4[C@H](C)CC[C@@H]1[C@@]24OO3', 'IC50', '=', 0.54),
  ('C[C@H]1[C@@H](OCC(=O)N2C[C@H]3[C@@H]([C@H]2C(=O)O)C3(C)C)O[C@@H]2O[C@@]3(C)CC[C@H]4[C@H](C)CC[C@@H]1[C@@]24OO3', 'IC50', '>', 20);
